Cited source for all entries: the supplement of paper PMC9233669

For each record, write down the corresponding self-aminoacylation.
- Tested on: biotinyl-Ile-oxazolone
- assay.summary: self-aminoacylation, catalytic enhancement (BIO) (fold over background); higher = more active; k-Seq, kA / k0A0; sequences stand for … in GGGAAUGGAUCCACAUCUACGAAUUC…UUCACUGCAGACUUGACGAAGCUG
Variants at the floor of the assay were thinned out.
Write no unit; give the number alone.

Data request: Any idea what self-aminoacylation was measured for AUUUCGCUGGUCAUCGAGUGA [Fam2.1 aminoacylation ribozyme variant] ?
Data returned: 2.84

Data request: Param item = AAGUUUGCGAAUCGUCGCAAG [Fam3.1 aminoacylation ribozyme variant] ; retrieve measured self-aminoacylation.
Data returned: 1.31

Data request: So what does the record say about self-aminoacylation for AUUCUCCUAGGUCAUCGGGUA [Fam2.2 aminoacylation ribozyme variant] ?
Data returned: 4.71

Data request: Recorded self-aminoacylation for AUUCACCUAGGUGAUCGGGGG [Fam2.2 aminoacylation ribozyme variant] , please?
Data returned: 5.84

Data request: If you can, please state the reported self-aminoacylation value of CCACACCUCAUGCAAUCGGUC [Fam1B.1 aminoacylation ribozyme variant] .
Data returned: 0.959

Data request: // query self-aminoacylation value for entry CCACACUUCAAGCAAUCGGUC [Fam1B.1 aminoacylation ribozyme variant]
Data returned: 1.01

Data request: // returns reported self-aminoacylation for input AUUAACUUGGUCAUCGAGUGA [Fam2.1 aminoacylation ribozyme variant]
Data returned: 2.9

Data request: For AUUUACCUAGGCCAUCGGGUG [Fam2.2 aminoacylation ribozyme variant] , what is its reported self-aminoacylation?
Data returned: 2.47

Data request: Would you kindly share the measured self-aminoacylation for CCACACUUUAAGCAAUCGGCC [Fam1B.1 aminoacylation ribozyme variant] ?
Data returned: 1.52
